assay: Cmax in rat at 5 mg/kg, iv and 20 mg/kg, po; assay type: ADME, organism-based; conditions: in vivo
RESULT TYPE: Cmax

Q. Quick one: Cmax for CC[C@](O)(c1cn(Cc2ccc3c(-c4ccc(F)cc4)c(C(N)=O)sc3c2)nn1)C(F)(F)F ?
A. 19.4 µM

====

biological target: Polyunsaturated fatty acid 5-lipoxygenase (Homo sapiens, UniProt P09917); test: Inhibition of 5-lipoxygenase in human whole blood assessed as inhibition of LTB4 production; assay type: tissue-based
Sequence (P09917 whole entry): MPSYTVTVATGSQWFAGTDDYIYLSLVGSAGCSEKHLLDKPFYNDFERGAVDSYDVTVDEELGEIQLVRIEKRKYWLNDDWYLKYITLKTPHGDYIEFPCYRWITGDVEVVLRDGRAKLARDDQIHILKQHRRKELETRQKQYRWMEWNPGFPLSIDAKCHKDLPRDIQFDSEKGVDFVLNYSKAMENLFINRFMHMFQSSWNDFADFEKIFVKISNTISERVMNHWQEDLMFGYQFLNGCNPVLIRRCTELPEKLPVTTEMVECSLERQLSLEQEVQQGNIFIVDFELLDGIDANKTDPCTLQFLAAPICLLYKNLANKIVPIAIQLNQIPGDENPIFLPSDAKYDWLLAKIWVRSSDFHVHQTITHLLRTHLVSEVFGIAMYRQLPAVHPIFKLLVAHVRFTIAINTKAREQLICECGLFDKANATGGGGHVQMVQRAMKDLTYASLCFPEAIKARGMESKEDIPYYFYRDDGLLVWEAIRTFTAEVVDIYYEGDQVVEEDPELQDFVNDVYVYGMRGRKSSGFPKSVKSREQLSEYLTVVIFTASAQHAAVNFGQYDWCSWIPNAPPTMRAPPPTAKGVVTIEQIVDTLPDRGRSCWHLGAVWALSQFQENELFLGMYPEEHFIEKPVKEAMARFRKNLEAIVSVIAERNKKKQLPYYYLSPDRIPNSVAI
Below, each entry is listed alongside its reported pIC50.
Note: pIC50 values are expressed as the negative base-10 logarithm of concentration in M.

{"columns": ["MOLECULE", "pIC50"],
 "data": [
  ["CC[C@](O)(c1cn(Cc2ccc3c(-c4ccccc4)c(C(N)=O)sc3c2)nn1)C(F)(F)F", 7.49],
  ["CCC(O)(c1cn(Cc2ccc3c(-c4ccccc4)c(CO)sc3c2)nn1)C(F)(F)F (centres undefined)", 7.19]
]}

Q. Give the measured pIC50 of CCC(O)(c1cn(Cc2ccc3c(-c4ccccc4)c(C(C)=O)sc3c2)nn1)C(F)(F)F (centres undefined) .
A. 7.08

Q. Try this molecule too: CC[C@](O)(c1cn(Cc2ccc3c(-c4cccc(F)c4)c(C(N)=O)sc3c2)nn1)C(F)(F)F
A. 7.51

Q. Request: CCC(O)(c1cn(Cc2ccc3c(-c4ccccc4)c(C(=O)N(C)C)sc3c2)nn1)C(F)(F)F (centres undefined)
A. 5.74

Q. What do you get for CCC(O)(c1cn(Cc2ccc3c(-c4ccccc4)csc3c2)nn1)C(F)(F)F (centres undefined) ?
A. 6.22

Q. Can you check CCC(O)(c1cn(Cc2ccc3c(-c4ccccc4)c(C(=O)OC)sc3c2)nn1)C(F)(F)F (centres undefined) next?
A. 6.59

====

target: Voltage-gated inwardly rectifying potassium channel KCNH2 (Homo sapiens, UniProt Q12809); assay: Displacement of labeled MK-499 from human ERG; conditions: read-out: Ki
Sequence (Q12809 whole entry): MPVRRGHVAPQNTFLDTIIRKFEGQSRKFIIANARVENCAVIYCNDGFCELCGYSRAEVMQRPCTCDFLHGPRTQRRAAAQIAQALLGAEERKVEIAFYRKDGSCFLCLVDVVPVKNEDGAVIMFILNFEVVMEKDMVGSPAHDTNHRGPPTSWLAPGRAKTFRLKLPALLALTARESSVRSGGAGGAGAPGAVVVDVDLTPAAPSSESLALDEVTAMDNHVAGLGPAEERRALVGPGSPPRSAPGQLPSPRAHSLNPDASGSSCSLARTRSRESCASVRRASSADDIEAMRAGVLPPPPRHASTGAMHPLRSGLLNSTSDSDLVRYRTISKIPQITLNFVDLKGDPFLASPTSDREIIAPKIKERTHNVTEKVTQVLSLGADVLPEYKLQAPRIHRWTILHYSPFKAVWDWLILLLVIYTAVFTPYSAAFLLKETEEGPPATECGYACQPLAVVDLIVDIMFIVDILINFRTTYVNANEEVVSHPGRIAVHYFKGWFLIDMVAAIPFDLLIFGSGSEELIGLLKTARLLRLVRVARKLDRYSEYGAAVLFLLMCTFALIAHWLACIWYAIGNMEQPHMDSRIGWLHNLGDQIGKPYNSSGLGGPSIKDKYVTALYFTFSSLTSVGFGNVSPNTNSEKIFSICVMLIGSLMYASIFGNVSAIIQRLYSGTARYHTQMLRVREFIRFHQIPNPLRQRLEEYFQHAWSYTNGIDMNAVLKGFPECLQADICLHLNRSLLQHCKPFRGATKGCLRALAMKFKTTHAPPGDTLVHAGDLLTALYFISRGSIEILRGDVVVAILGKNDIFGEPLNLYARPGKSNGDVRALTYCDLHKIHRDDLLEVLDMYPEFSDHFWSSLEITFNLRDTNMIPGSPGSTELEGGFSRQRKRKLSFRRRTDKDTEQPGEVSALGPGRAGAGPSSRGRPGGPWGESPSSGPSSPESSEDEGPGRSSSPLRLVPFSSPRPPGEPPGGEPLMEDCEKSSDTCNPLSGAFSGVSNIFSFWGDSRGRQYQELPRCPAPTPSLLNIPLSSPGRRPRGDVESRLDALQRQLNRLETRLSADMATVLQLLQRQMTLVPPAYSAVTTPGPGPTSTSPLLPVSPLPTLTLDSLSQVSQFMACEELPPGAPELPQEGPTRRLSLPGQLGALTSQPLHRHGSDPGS
Below, each of the compounds is paired with its reported pKi value.
Just the number, please; pKi means minus log10 of the concentration in mol/L.

Illustrative cases are given below, each with its answer.
{"columns": ["COMPOUND", "STUDY TARGET", "pKi"],
 "data": [
  ["CCC(O)(c1cn(Cc2ccc3c(-c4ccccc4)c(C(C)O)sc3c2)nn1)C(F)(F)F (stereo not given)", "Voltage-gated inwardly rectifying potassium channel KCNH2 (Homo sapiens, UniProt Q12809)", 5.42],
  ["CC[C@](O)(c1cn(Cc2ccc3c(-c4cccc(F)c4)c(C(N)=O)sc3c2)nn1)C(F)(F)F", "Voltage-gated inwardly rectifying potassium channel KCNH2 (Homo sapiens, UniProt Q12809)", 4.85],
  ["CCC(O)(c1cn(Cc2ccc3c(-c4ccccc4)c(C(C)(C)O)sc3c2)nn1)C(F)(F)F (stereo not given)", "Voltage-gated inwardly rectifying potassium channel KCNH2 (Homo sapiens, UniProt Q12809)", 5.59]
]}

Next, consider the following compound.
Q. Give the measured pKi of CCC(O)(c1cn(Cc2ccc3c(-c4ccccc4)c(CO)sc3c2)nn1)C(F)(F)F (stereo not given) .
A. 4.89

====

assay: Half life in rat at 5 mg/kg, iv and 20 mg/kg, po; assay type: ADME, organism-based; settings: in vivo
RESULT TYPE: half-life (h)
API: value field is a number in h; no unit string.

Q. Need half-life, item CC[C@](O)(c1cn(Cc2ccc3c(-c4ccc(F)cc4)c(C(N)=O)sc3c2)nn1)C(F)(F)F
A. 7.9

====

Molecular target: Polyunsaturated fatty acid lipoxygenase ALOX12 (Homo sapiens, UniProt P18054)
Sequence (P18054 whole entry): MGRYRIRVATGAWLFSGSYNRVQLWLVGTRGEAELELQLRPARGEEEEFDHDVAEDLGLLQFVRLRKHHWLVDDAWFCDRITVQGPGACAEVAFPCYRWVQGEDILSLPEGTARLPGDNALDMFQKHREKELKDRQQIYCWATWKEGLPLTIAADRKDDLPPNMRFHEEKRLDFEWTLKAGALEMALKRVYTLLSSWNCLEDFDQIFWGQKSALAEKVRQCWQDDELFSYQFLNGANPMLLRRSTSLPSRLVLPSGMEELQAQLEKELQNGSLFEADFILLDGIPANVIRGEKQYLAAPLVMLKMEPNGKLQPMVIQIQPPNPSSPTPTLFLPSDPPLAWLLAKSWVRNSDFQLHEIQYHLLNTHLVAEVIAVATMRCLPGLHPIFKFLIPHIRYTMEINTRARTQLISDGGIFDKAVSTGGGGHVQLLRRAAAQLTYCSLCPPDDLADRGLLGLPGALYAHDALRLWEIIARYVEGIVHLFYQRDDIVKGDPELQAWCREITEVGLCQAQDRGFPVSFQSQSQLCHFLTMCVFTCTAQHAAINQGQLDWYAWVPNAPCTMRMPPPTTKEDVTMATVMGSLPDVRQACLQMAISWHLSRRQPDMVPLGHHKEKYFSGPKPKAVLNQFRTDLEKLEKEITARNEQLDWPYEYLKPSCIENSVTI
Test: Inhibition of 12-lipoxygenase
RESULT TYPE: IC50

Q. Field request: IC50 | item: CC[C@](O)(c1cn(Cc2ccc3c(-c4ccc(F)cc4)c(C(N)=O)sc3c2)nn1)C(F)(F)F
A. > 20 µM

====

target: Voltage-gated inwardly rectifying potassium channel KCNH2 (Homo sapiens); assay: Displacement of labeled MK-499 from human ERG; conditions: read-out: Ki
RESULT TYPE: pKi
Please report pKi as the negative decimal logarithm of the molar concentration, giving only the number.

Illustrative cases are given below, each with its answer.
{"columns": ["COMPOUND", "pKi"],
 "data": [
  ["CCC(O)(c1cn(Cc2ccc3c(-c4ccccc4)c(C(C)=O)sc3c2)nn1)C(F)(F)F (stereo unspecified)", 5.36],
  ["CC[C@](O)(c1cn(Cc2ccc3c(-c4ccc(F)cc4)c(C(N)=O)sc3c2)nn1)C(F)(F)F", 4.89]
]}

Q. # query: pKi of entry CC[C@@](O)(c1cn(Cc2ccc3c(-c4ccc(F)cc4)c(C(N)=O)sc3c2)nn1)C(F)(F)F
A. 4.96

====

target: Voltage-gated inwardly rectifying potassium channel KCNH2 (Homo sapiens); test: Displacement of labeled MK-499 from human ERG; details: read-out: Ki
RESULT TYPE: Ki

Here's what some known entries look like.
{"columns": ["COMPOUND", "STUDY TARGET", "REPORTED RESULT"],
 "data": [
  ["CCC(O)(c1cn(Cc2ccc3c(-c4ccccc4)c(C(=O)O)sc3c2)nn1)C(F)(F)F (stereo not drawn)", "Voltage-gated inwardly rectifying potassium channel KCNH2 (Homo sapiens)", "> 20 µM"],
  ["CCC(O)(c1cn(Cc2ccc3c(-c4ccccc4)c(C(=O)N(C)C)sc3c2)nn1)C(F)(F)F (stereo not drawn)", "Voltage-gated inwardly rectifying potassium channel KCNH2 (Homo sapiens)", "> 20 µM"]
]}

// below: Ki requested for another compound
Q. Ki of CC[C@](O)(c1cn(Cc2ccc3c(-c4ccc(F)cc4)c(C(=O)O)sc3c2)nn1)C(F)(F)F on Voltage-gated inwardly rectifying potassium channel KCNH2 (Homo sapiens)?
A. > 20 µM

These data points were gathered from ChEMBL document CHEMBL1287744.
